Tested on: PC-3 (human prostate carcinoma)
Assay: MTT assay, PC-3
Assay type: cell-based
Details: Homo sapiens; MTT assay, PC-3; read-out: IC50 (±SD), PC-3
Checkbox rule: IC50 lower than 10 µM = Y; IC50 not lower than 10 µM = N.

>  <compound>
C=C(C)[C@@H]1CC[C@]2(C(=O)O)CC[C@]3(C)[C@H](CC[C@@H]4[C@@]5(C)CC[C@H](O)C(C)(C)[C@@H]5CC[C@]43C)[C@@H]12 [4a, betulinic acid]

>  <label-value>
N

$$$$
>  <compound>
CC1(C)CC[C@]2(CO)CC[C@]3(C)C(=CC[C@@H]4[C@@]5(C)CC[C@H](O)C(C)(C)[C@@H]5CC[C@]43C)[C@@H]2C1 [2a, erythrodiol]

>  <label-value>
N

$$$$
>  <compound>
CC(=O)OCC12CCC(C)(C)CC1C1=CCC3C4(C)CCC(OC(C)=O)C(C)(C)C4CCC3(C)C1(C)CC2 (centres unmarked) [2b, 3,28-di-O-Acetylerythrodiol]

>  <label-value>
N

$$$$
>  <compound>
CC(=O)O[C@H]1CC[C@]2(C)[C@H]3CC=C4[C@@H]5CC(C)(C)CC[C@]5(C(=O)O)CC[C@@]4(C)[C@]3(C)CC[C@H]2C1(C)C [1b, 3-O-Acetyloleanolic acid]

>  <label-value>
Y

$$$$
>  <compound>
C=C(C)[C@@H]1CC[C@]2(C)CC[C@]3(C)[C@H](CC[C@@H]4[C@@]5(C)CC[C@H](O)C(C)(C)[C@@H]5CC[C@]43C)[C@@H]12 [6a, lupeol]

>  <label-value>
N

$$$$

* * *

# key: entry, value: Selectivity index (SI), KB
Test system: KB (human oral squamous carcinoma)
Experiment: MTT assay, KB
Format: cell-based
Settings: IC50 HDF / IC50 KB

>  <molecule>
C=C(C)[C@@H]1CC[C@]2(C)CC[C@]3(C)[C@H](CC[C@@H]4[C@@]5(C)CC[C@H](O)C(C)(C)[C@@H]5CC[C@]43C)[C@@H]12

>  <Selectivity index (SI), KB>
0.57

$$$$
>  <molecule>
C=C(C)[C@@H]1CC[C@]2(CO)CC[C@]3(C)[C@H](CC[C@@H]4[C@@]5(C)CC[C@H](O)C(C)(C)[C@@H]5CC[C@]43C)[C@@H]12

>  <Selectivity index (SI), KB>
0.80

$$$$
>  <molecule>
CC(=O)OCC12CCC(C)(C)CC1C1=CCC3C4(C)CCC(OC(C)=O)C(C)(C)C4CCC3(C)C1(C)CC2 (centres unmarked)

>  <Selectivity index (SI), KB>
1.06

$$$$
>  <molecule>
C=C(C)C1CCC2(C(=O)O)CCC3(C)C(CCC4C5(C)CCC(OC(C)=O)C(C)(C)C5CCC43C)C12 (centres unmarked)

>  <Selectivity index (SI), KB>
1.92

$$$$
>  <molecule>
C=C(C)[C@@H]1CC[C@]2(C(=O)O)CC[C@]3(C)[C@H](CC[C@@H]4[C@@]5(C)CC[C@H](O)C(C)(C)[C@@H]5CC[C@]43C)[C@@H]12

>  <Selectivity index (SI), KB>
0.56

$$$$
>  <molecule>
CC1(C)CC[C@]23CC[C@]4(C)[C@H](CC[C@@H]5[C@@]6(C)CC[C@H](O)C(C)(C)[C@@H]6CC[C@]54C)[C@H]2[C@H]1OC3

>  <Selectivity index (SI), KB>
1.06

$$$$
>  <molecule>
CC1(C)CC[C@]2(CO)CC[C@]3(C)C(=CC[C@@H]4[C@@]5(C)CC[C@H](O)C(C)(C)[C@@H]5CC[C@]43C)[C@@H]2C1

>  <Selectivity index (SI), KB>
0.42

$$$$
>  <molecule>
CC(=O)O[C@H]1CC[C@]2(C)[C@H]3CC=C4[C@@H]5CC(C)(C)CC[C@]5(C(=O)O)CC[C@@]4(C)[C@]3(C)CC[C@H]2C1(C)C

>  <Selectivity index (SI), KB>
0.53

$$$$
